# key: entry, value: viability, T/C
- Tested on: 873145-292-R-J1-PDC complex spheroid viability;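 further: luminescence signal used as surrogate for viable cell content; spheroids exposed to compounds for 7 days before viability readout; 100% = DMSO vehicle control viability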
- measurement notes: Anticancer human tumor 873145-292-R-J1-PDC patient-derived renal clear cell carcinoma cell line growth inhibition [POLQ]
- test parameters: second compound 0.0316 µM; first compound 0.1 µM; hits give low values
- Experimental: Multicellular complex tumor spheroid response to Polymerase (POL) inhibitors (novobiocin, ART-558, RP6685) in combination with a variety of drugs and investigational agents in selected tumor cell lines The POL inhibitors (novobiocin, ART-558, and RP6685) were evaluated both individually and in combination with standard of care and investigational anticancer small molecules within a complex spheroid model of solid tumors. . […]
Your answer is read as %, so omit the unit and give the number.

The examples below pair each entry with its known result.
COc1cc2cc(C(=O)CCC(=O)O)sc2cc1OC + COC1C(OC(N)=O)C(O)C(Oc2ccc3c(O)c(NC(=O)c4ccc(O)c(CC=C(C)C)c4)c(=O)oc3c2C)OC1(C)C: 93.8
O=c1[nH]cc(F)c(=O)[nH]1 + Cc1cccc(N(C)C(=O)C2C(O)CCN2c2nc(C)cc(C(F)(F)F)c2C#N)c1: 104
CNCc1ccc(-c2[nH]c3cc(F)cc4c3c2CCNC4=O)cc1 + Cc1cccc(N(C)C(=O)C2C(O)CCN2c2nc(C)cc(C(F)(F)F)c2C#N)c1: 111
COc1cc2cc(C(=O)CCC(=O)O)sc2cc1OC + Cc1cccc(N(C)C(=O)C2C(O)CCN2c2nc(C)cc(C(F)(F)F)c2C#N)c1: 106
COc1cccc2c1C(=O)c1c(O)c3c(c(O)c1C2=O)CC(O)(C(=O)CO)CC3OC1CC(N)C(O)C(C)O1 (stereo unspecified) + COC1C(OC(N)=O)C(O)C(Oc2ccc3c(O)c(NC(=O)c4ccc(O)c(CC=C(C)C)c4)c(=O)oc3c2C)OC1(C)C: 92.4
COc1cccc(OCCCN)c1-c1cc(Nc2cnc(C#N)cn2)n[nH]1 + Nc1ccc(C#CCN(C(=O)Cc2ncc(C(F)(F)F)cc2C(F)(F)F)c2ccc(F)cc2)nn1: 66.6
Cn1ncnc1[C@H]1c2n[nH]c(=O)c3cc(F)cc(c23)N[C@@H]1c1ccc(F)cc1 + COC1C(OC(N)=O)C(O)C(Oc2ccc3c(O)c(NC(=O)c4ccc(O)c(CC=C(C)C)c4)c(=O)oc3c2C)OC1(C)C: 95.9
CCc1c2c(nc3ccc(O)cc13)-c1cc3c(c(=O)n1C2)COC(=O)[C@]3(O)CC + COC1C(OC(N)=O)C(O)C(Oc2ccc3c(O)c(NC(=O)c4ccc(O)c(CC=C(C)C)c4)c(=O)oc3c2C)OC1(C)C: 47.1

Name the reported viability, T/C value associated with the molecule C#Cc1c(F)ccc2cc(O)cc(-c3ncc4c(N5CC6CCC(C5)N6)nc(OCC56CCCN5CC(F)C6)nc4c3F)c12 (stereo unspecified) + Cc1cccc(N(C)C(=O)C2C(O)CCN2c2nc(C)cc(C(F)(F)F)c2C#N)c1 112

Entry CC1COCCN1c1cc(-c2ccnn2C)c2ccnc(-c3ccn[nH]3)c2n1 (stereo unspecified) + Cc1cccc(N(C)C(=O)C2C(O)CCN2c2nc(C)cc(C(F)(F)F)c2C#N)c1 please 79.1

Another molecule: CC(C)n1c(=O)n(C)c2cnc3cc(F)c(-c4ccc(OCCCN5CCCCC5)nc4)cc3c21 + Nc1ccc(C#CCN(C(=O)Cc2ncc(C(F)(F)F)cc2C(F)(F)F)c2ccc(F)cc2)nn1 106

Source listed as PubChem BioAssay AID1963834.
